Target: T1, factor VIIIa (human, UniProt P00451 20-2351)
T1 sequence (looked up): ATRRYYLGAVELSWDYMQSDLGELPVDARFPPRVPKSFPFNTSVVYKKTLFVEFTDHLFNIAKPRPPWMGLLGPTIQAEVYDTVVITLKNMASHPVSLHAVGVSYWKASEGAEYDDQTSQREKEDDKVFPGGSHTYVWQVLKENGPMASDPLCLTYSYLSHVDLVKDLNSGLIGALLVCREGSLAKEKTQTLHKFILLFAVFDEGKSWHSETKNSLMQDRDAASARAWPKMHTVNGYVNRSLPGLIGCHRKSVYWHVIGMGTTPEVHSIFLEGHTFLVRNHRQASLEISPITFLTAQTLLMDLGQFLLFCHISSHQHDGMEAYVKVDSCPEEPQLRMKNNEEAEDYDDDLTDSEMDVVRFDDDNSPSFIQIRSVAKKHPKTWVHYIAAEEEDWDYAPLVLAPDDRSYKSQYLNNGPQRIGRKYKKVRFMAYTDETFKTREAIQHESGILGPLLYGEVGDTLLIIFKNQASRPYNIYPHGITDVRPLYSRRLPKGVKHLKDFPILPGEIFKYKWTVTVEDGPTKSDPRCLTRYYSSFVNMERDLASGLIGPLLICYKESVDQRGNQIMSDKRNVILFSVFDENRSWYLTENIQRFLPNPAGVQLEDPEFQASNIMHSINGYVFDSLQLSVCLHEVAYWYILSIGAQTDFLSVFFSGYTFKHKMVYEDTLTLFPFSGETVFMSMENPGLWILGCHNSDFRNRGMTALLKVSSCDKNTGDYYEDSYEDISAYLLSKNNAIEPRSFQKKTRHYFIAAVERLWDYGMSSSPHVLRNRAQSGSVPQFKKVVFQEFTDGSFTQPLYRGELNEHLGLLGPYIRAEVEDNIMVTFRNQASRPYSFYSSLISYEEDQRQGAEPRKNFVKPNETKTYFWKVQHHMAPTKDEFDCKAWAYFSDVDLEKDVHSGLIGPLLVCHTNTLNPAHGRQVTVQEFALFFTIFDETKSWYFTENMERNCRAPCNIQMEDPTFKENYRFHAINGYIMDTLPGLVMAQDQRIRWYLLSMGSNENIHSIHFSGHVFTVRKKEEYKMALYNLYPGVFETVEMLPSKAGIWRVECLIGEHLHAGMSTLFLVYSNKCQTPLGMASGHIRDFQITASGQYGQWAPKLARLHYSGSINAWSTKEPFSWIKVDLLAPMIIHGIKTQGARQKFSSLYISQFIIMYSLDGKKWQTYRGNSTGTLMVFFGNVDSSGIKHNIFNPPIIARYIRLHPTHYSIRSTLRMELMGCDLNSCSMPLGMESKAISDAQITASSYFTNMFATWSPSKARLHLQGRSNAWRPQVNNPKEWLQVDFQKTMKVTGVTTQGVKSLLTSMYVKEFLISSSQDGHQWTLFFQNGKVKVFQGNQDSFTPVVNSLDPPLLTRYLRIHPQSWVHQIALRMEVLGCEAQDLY
Assay: peptide competition assay: inhibition of factor X activation by IXa with VIIIa and phospholipid
pIC50: −log10 of the molar value.
Decide using pIC50: a value greater than or equal to 5 is 1, a smaller one is -1.

{"binder": "DRAT [P-4488 SEQ ID NO: 2 (DRAT)]", "category_label": -1}

Proceed to the following item.
Task item: Given the entry LVDRAT [P-4351 SEQ ID NO: 6 (LVDRAT)] , answer whether its pIC50 meets or surpasses 5.
Reply: 1
